Ref: PubChem BioAssay AID588622

# EC50 values compiled below
target: RhoWT; test: inhibitors of GTP binding, eight-GTPase multiplex, SAR follow-up, biochemical, bead flow cytometry, Mg non-chelator buffer, round 2 (AID 588622); details: bead-based flow cytometry multiplex GTP binding

Below: 6 compounds and their reported EC50.
Kindly state the measured EC50 obtained for `COc1cccc(C(=O)NC(=S)Nc2sc3c(c2C(=O)O)CC(C)(C)OC3)c1` with RhoWT.
292 nM

Kindly state the measured EC50 obtained for `COc1ccc(C(=O)NC(=S)Nc2sc3c(c2C(=O)O)CC(C)(C)OC3)cc1` with RhoWT.
213 nM

Kindly state the measured EC50 obtained for `CC1(C)Cc2c(sc(NC(=S)NC(=O)c3ccc(Br)cc3)c2C(=O)O)CO1` with RhoWT.
475 nM

Kindly state the measured EC50 obtained for `Cc1ccc(C(=O)NC(=S)Nc2sc3c(c2C(=O)O)CC(C)(C)OC3)cc1` with RhoWT.
131 nM

Kindly state the measured EC50 obtained for CC(C)(C)C1Cc2c(sc(NC(=S)NC(=O)c3ccccc3)c2C(=O)O)CO1 (stereo not given) with RhoWT.
197 nM

Kindly state the measured EC50 obtained for `CC1(C)Cc2c(sc(NC(=S)NC(=O)c3ccccc3F)c2C(=O)O)CO1` with RhoWT.
431 nM

More entries:
Kindly state the measured EC50 obtained for `CC1(C)Cc2c(sc(NC(=S)NC(=O)c3cccc(F)c3)c2C(=O)O)CO1` with RhoWT.
599 nM

Kindly state the measured EC50 obtained for `CC1(C)Cc2c(sc(NC(=S)NC(=O)c3cccs3)c2C(=O)O)CO1` with RhoWT.
33 nM

Kindly state the measured EC50 obtained for `CC1(C)CCc2sc(NC(=S)NC(=O)c3ccccc3)c(C(=O)O)c2C1` with RhoWT.
62 nM

Kindly state the measured EC50 obtained for CCC1(C)Cc2c(sc(NC(=S)NC(=O)c3ccccc3)c2C(=O)O)CO1 (stereo not given) with RhoWT.
46 nM

---

molecular target: RacWT; assay: inhibitors of GTP binding, eight-GTPase multiplex, SAR follow-up, biochemical, bead flow cytometry, Mg non-chelator buffer, round 2 (AID 588622); conditions: bead-based flow cytometry multiplex GTP binding, at 100 µM (top of the series)
Active and inactive are the calls of the source. The rule behind the calls is not given here.
value type: % response (lower = inhibition)

Below: 5 molecules and their reported % response (lower = inhibition).
Quick one: % response (lower = inhibition) of `COc1ccccc1C(=O)NC(=S)Nc1sc2c(c1C(=O)O)CC(C)(C)OC2` ?
inactive

Quick one: % response (lower = inhibition) of `COc1cccc(C(=O)NC(=S)Nc2sc3c(c2C(=O)O)CC(C)(C)OC3)c1` ?
inactive

Quick one: % response (lower = inhibition) of `CC1(C)Cc2c(sc(NC(=S)NC(=O)c3cccc(Br)c3)c2C(=O)O)CO1` ?
inactive

Quick one: % response (lower = inhibition) of `CC1(C)Cc2c(sc(NC(=S)Nc3ccccc3)c2C(=O)O)CO1` ?
inactive

Quick one: % response (lower = inhibition) of `Cc1cccc(C(=O)NC(=S)Nc2sc3c(c2C(=O)O)CC(C)(C)OC3)c1` ?
inactive

// below: % response (lower = inhibition) requested for another molecule
Quick one: % response (lower = inhibition) of `CC1(C)Cc2c(sc(NC(=S)NC(=O)c3ccccc3Br)c2C(=O)O)CO1` ?
inactive
